Experimental System: T1, human IL-12Rβ2 (human, UniProt Q99665 24-862)
T1 construct: Expressed on HEK293T cells transiently transfected with a pcDNA3 plasmid (Genscript clone OHu21785); also called hIL-12RB2; IL-12 receptor β2 subunit
T1 sequence: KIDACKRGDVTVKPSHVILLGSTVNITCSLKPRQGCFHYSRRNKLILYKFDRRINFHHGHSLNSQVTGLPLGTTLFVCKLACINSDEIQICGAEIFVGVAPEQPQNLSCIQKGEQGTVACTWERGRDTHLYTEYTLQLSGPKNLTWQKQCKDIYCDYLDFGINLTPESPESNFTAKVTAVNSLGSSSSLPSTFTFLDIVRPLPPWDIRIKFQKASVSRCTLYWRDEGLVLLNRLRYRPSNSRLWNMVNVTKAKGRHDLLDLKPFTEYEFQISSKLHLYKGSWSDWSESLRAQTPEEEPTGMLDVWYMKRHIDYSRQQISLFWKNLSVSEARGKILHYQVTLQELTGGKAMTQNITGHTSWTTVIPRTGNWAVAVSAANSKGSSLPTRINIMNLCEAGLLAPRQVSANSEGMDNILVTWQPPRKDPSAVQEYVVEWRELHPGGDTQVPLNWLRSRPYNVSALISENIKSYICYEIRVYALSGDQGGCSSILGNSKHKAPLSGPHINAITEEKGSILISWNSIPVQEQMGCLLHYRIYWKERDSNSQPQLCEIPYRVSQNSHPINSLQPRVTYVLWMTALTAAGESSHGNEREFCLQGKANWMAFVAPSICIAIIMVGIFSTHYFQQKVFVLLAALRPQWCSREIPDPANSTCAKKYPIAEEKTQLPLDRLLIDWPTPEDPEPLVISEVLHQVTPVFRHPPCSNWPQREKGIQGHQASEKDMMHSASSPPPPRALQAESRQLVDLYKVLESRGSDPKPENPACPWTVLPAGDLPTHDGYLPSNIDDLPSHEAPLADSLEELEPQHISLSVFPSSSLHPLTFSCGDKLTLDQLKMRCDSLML
Protocol Summary: flow cytometry, P.E. on transfected HEK293T cells
Measured Quantity: dMFI
When you answer, write just the number.

Binder | Measured Quantity | Measurement
anti-IL-12Rβ2 VHH clone 3CRHS67 (VHH, not shown: small tags and cut ends, periplasmic extract) VHH: QVQLQESGGGLVQAGGSLTLSCVSSQTLVGIEAMGWYRQAPGKQRELVALITLNGGTFYADSVKGRFTISRDVAEHMLYLEMNSLNPEDTAVYFCVAGVESDNEEPTYWGQGTQVTVSS | dMFI | 443

Prompt line: dMFI lookup needed for anti-IL-12Rβ2 VHH clone 3CAH48 (VHH, not shown: small tags and cut ends, periplasmic extract; also called 20360) VHH: QVQLQESGGGLVQAGGSLRLSCAASGRTFSSYAMGWFRQGPGKEREFVAAISWSGVSTYYADSVKGRFTISRDNAKNTVYLQMNSLRPEDTAVYYCAATEGAYTVAGGSTFGYDMDYWGKGTQVTVSS , thanks.
Response line: 801

Cited source for all entries: patent US20260209362A1
